- Test Target: Human ATX protein (Homo sapiens)
- Construct: made in house
- Test Description: Autotaxin (ATX) assay, FRET with FS-3 substrate
- Format: biochemical
- Study Conditions: upper bound bins (no greater than 100, 250 or 500 nM); FS-3 2 μM, ATX 1.0 μg/mL
Reported IC50 values follow for various molecules
Assay Metric: IC50

| Molecule | Reported |
| --- | --- |
| O=C(CN1CC2CC2C1)c1cc2n(n1)CCN(C(=O)OCc1cc(C(F)(F)F)cc(C(F)(F)F)c1)C2 (stereo not drawn) | ≤ 100 nM |
| Cc1cc2n(n1)CCCN(C(=O)OCc1cc(F)cc(C(F)(F)F)c1)C2 | ≤ 250 nM |
| O=C(OCc1cc(C(F)(F)F)cc(C(F)(F)F)c1)N1CCn2nc(C3CN4CCC[C@H]4CO3)cc2C1 (stereo partly drawn) | ≤ 100 nM |
| O=C(O)c1cc2n(n1)CCN(C(=O)OCc1cc(C(F)(F)F)cc(C(F)(F)F)c1)C2 | ≤ 250 nM |
| CCOC(=O)c1cc2n(n1)CCCN(C(=O)OCc1cc(C)cc(C(F)(F)F)c1)C2 | ≤ 100 nM |
| O=C(OCc1cc(C(F)(F)F)cc(C(F)(F)F)c1)N1CCCn2nc(CN3C4CCCC3CCC4)cc2C1 | ≤ 100 nM |
| CCN1CC2CN(c3cc4n(n3)CCCN(C(=O)OCc3cc(C(F)(F)F)cc(C(F)(F)F)c3)C4)CC2C1 (stereo not drawn) | ≤ 100 nM |
| O=C(OCc1cc(Cl)cc(C(F)(F)F)c1)N1CCCn2nc(C(=O)N3CCNCC34CCC4)cc2C1 | ≤ 100 nM |
| O=C(OCc1cc(Cl)cc(C(F)(F)F)c1)N1CCn2nc(NC3CCNCC3)cc2C1 | ≤ 100 nM |
| Cc1cc2n(n1)CCCN(C(=O)OCc1cc(C(F)(F)F)cc(C(F)(F)F)c1)C2 | ≤ 100 nM |
| O=C(O)c1cnc2n1CCN(C(=O)OCc1cc(C(F)(F)F)cc(C(F)(F)F)c1)CC2 | ≤ 500 nM |
| CC(C)C1CC(Nc2cc3n(n2)CCCN(C(=O)OCc2cc(C(F)(F)F)cc(C(F)(F)F)c2)C3)CCN1 (stereo not drawn) | ≤ 100 nM |
| NCCCCNC(=O)c1cc2n(n1)CCCN(C(=O)OCc1cc(C(F)(F)F)cc(C(F)(F)F)c1)C2 | ≤ 100 nM |
| O=C(O)C1CCCN(C(=O)c2cc3n(n2)CCCN(C(=O)OCc2cc(Cl)cc(Cl)c2)C3)C1 (stereo not drawn) | ≤ 250 nM |
| NC1CCN(C(=O)c2cc3n(n2)CCCN(C(=O)OCc2cc(Cl)cc(Cl)c2)C3)CC1 | ≤ 100 nM |
| CC1CN(C(=O)c2cc3n(n2)CCN(C(=O)OCc2cc(C(F)(F)F)cc(C(F)(F)F)c2)C3)CCN1 (stereo not drawn) | ≤ 100 nM |
| CC1CN(CC(=O)c2cc3n(n2)CCCN(C(=O)OCc2cc(Cl)cc(C(F)(F)F)c2)C3)CC(C)O1 (stereo not drawn) | ≤ 100 nM |
| O=C(OCc1cc(Cl)cc(C(F)(F)F)c1)N1CCn2nc(C(=O)N3CC4CCC(C3)N4)cc2C1 | ≤ 100 nM |
| CC1CN(C(=O)OC(C)(C)C)CC(C)N1C(=O)c1cc2n(n1)CCN(C(=O)OCc1cc(C(F)(F)F)cc(C(F)(F)F)c1)C2 (stereo not drawn) | ≤ 100 nM |
| O=C(O)C1CC2CCCC(C1)N2C(=O)c1cc2n(n1)CCCN(C(=O)OCc1ccc(C(F)(F)F)cc1)C2 (stereo not drawn) | ≤ 100 nM |
| CN1CCCN(c2cc3n(n2)CCCN(C(=O)OCc2cc(C(F)(F)F)cc(C(F)(F)F)c2)C3)CC1 | ≤ 100 nM |
| O=C(N[C@H]1CC[C@H](C(=O)O)CC1)c1cc2n(n1)CCCN(C(=O)OCc1cc(Cl)cc(Cl)c1)C2 | ≤ 250 nM |
| CC(c1cc2n(n1)CCN(C(=O)OCc1cc(C(F)(F)F)cc(C(F)(F)F)c1)C2)N1CC2CCC(C1)N2 (stereo not drawn) | ≤ 100 nM |
| CC(C)(C)OC(=O)N1CC2CCC(C1)N2C(=O)c1cc2n(n1)CCN(C(=O)OCc1cc(C(F)(F)F)cc(C(F)(F)F)c1)C2 | ≤ 100 nM |
